# ASSAY_EXPLANATION: Plasma, brain and liver levels of epothilone D after bolus IV in triple transgenic mice
# Type: in vivo, mouse
# PROTOCOL_CONDITIONS: triple transgenic (Oddo et al. 2003), mouse, plasma, 5 mg/kg, bolus IV 5 mpk, 24 hr, read-out: Plasma conc
QUANTITY_NAME: concentration at 24 h
// unit must come after the numeric part

Exam item: Give the value of concentration at 24 h reported for the following: C/C1=C/C[C@@H](/C(C)=C/c2csc(C)n2)OC(=O)C[C@H](O)C(C)(C)C(=O)[C@H](C)[C@@H](O)[C@@H](C)CCC1 [Epothilone D, epothilone D]
Marked response: 0.9 nM
